- assay remarks: LNP size and polydispersity index by Dynamic Light Scattering (Malvern Zetasizer)
- Type: physicochemical
- condition label: Table 2; LNP ionizable lipid/DOPE/cholesterol/DMG-PEG2000 about 50/10/38.5/1.5; eGFP mRNA
Task for the reader: assign each of the following molecules its reported PDI.

Give me PDI for each of these molecules, listed below.
1. CCCCCCCCCCCCN(CCCCCCCCCCCC)C(=O)OCCOC(C)(C)OCCOC(=O)NCCN(C)C [K-Adm-Dda]
2. CCCCCCCCCCCCCCCCCCN(CCCCCCCCCCCCCCCCCC)C(=O)OCCSSCCOC(=O)NCCN(C(C)C)C(C)C [S-Adip-Dsa]
3. CCCCCCCCCCCCN(CCCCCCCCCCCC)C(=O)OCCOC(C)(C)OCCOC(=O)NCCN(C(C)C)C(C)C [K-Adip-Dda]
4. CCCCCCCCCCCCCCCCCCN(CCCCCCCCCCCCCCCCCC)C(=O)OCCSSCCOC(=O)NCCN1CCCCCC1 [S-Ac7-Dsa]
5. CCCCCCCCCCCCN(CCCCCCCCCCCC)C(=O)OCCSSCCOC(=O)NCCN(C(C)C)C(C)C [S-Adip-Dda]

Response:
1. 0.197
2. 0.153
3. 0.292
4. 0.188
5. 0.197

The reported measurements were obtained from patent US20240050574A1.
